// values below are reported pIC50
Tested on: CEM cells HIV-1 protection, formazan growth assay
Assay: NCI AIDS Antiviral Assay
Settings: measured here: growth of uninfected CEM cells
pIC50: −log10 of the molar value.

Examples with answers:
compound | result
COC(=O)C1(C)CC(c2ccccc2)=NC1c1ccccc1 (stereo not given) | < 3.91
N=C(N)SCC1OCOC1C1OCOC1CSC(=N)N (stereo not given) | < 3.11
COc1ccc2c(c1)[n+](=O)c(C(=O)C/C(=N/NC(=O)c1ccccc1O)C(=O)Nc1ccc(Cl)c(C(F)(F)F)c1)c(C)n2[O-] | < 5.92
O=C(CCCc1cccc2[nH]c3c(c12)CN(Cc1ccccc1)CC3)c1ccc(F)cc1 | 4.84

Below: the item to evaluate.
Record CC(=O)OCc1ncccc1C(OC(C)=O)OC(C)=O , field pIC50: < 3.05

====

Tested on: CEM cells HIV-1 protection, formazan growth assay
Experiment: NCI AIDS Antiviral Assay
Conditions: measured here: growth of uninfected CEM cells
readout-name: pIC50
# pIC50 is unitless: minus log10 of the molar concentration; print number only

As a guide, the following entries are already answered.
compound | assay-target | pIC50
CC(=O)[CH-]C(=O)c1ccccc1.CC(=O)[CH-]C(=O)c1ccccc1.CC(=O)[CH-]C(=O)c1ccccc1.[Tl+3] | CEM cells HIV-1 protection, formazan growth assay | 4.31
CCN(CC)C(=O)c1cc(=O)c(C)c2oc3c(C)c(O)c(N)c(C(=O)N(CC)CC)c3nc1-2 | CEM cells HIV-1 protection, formazan growth assay | 3.96
CCOc1ccc(C(CN2CCOCC2)C(C)=O)cc1OC (stereo not given) | CEM cells HIV-1 protection, formazan growth assay | 5.71

Lab note: N#CC1=C2Sc3ccccc3N2[C@H](c2ccccc2)[C@H]2COC(=O)[C@@H]12 gave pIC50 of 4.42

O=C(Nc1nc(C23CC4CC(CC(C4)C2)C3)cs1)c1cc2cc(Br)cc(Br)c2oc1=O has a reported pIC50 of 3.87

pIC50 reading for CCCCc1c(N(C)C)c(OC(C)=O)c(-c2cn(C)c3ccccc23)oc1=O : 4.50

Entry under test: [CH3][Sn]([CH3])([Cl])[CH2]C(P(=O)(c1ccccc1)c1ccccc1)P(=O)(c1ccccc1)c1ccccc1 . Its pIC50 was 5.64

The compound CC(=O)c1c(O)cc2c(c1O)C1CC(C)(CCC1=C(C)C)O2 (stereo not given) showed pIC50 equal to 4.58

Recorded result, CC(C)=CCC[C@@H](C)C1=C(Nc2ccccc2)C(O)=C(C)C(=O)C1=O , pIC50: 5.52

compound C#CCN(N=O)C(=O)ON1C(=O)CCC1=O , pIC50 observed: 3.27

Looking up Cc1ccc([N+](=O)[O-])cc1NC(=O)C(=O)C(C(=O)c1ccccc1F)C1OC(=O)c2ccccc21 (stereo not given) , I found its pIC50 recorded as 5.08

pIC50 for CC(=O)OCC1OC(N2C(C)=C(C(C)=O)C(c3ccco3)C(C#N)=C2S)C(OC(C)=O)C(OC(C)=O)C1OC(C)=O (stereo not given) is 3.96

CCOC(=O)C1CCN(C(=O)c2ccccc2)c2scc(-c3ccccc3)c2C1=O (stereo not given) has a reported pIC50 of 4.86

====

Catalogue of pIC50 values
Test system: CEM cells HIV-1 protection, formazan growth assay
Experiment: NCI AIDS Antiviral Assay
Conditions: measured here: growth of uninfected CEM cells
pIC50: −log10 of the molar value.

Worked examples, 4 molecules total:
molecule | assay-target | pIC50
COC(OC)C1OCC(n2cc(F)c(=O)[nH]c2=O)C1O (stereo not given) | CEM cells HIV-1 protection, formazan growth assay | < 3.70
CC(=O)OC1=C(C)S(=O)(=O)c2ccccc21 | CEM cells HIV-1 protection, formazan growth assay | < 3.70
COC(OC)[C@@H]1OC[C@H](n2cnc3c(N)ncnc32)[C@H]1O | CEM cells HIV-1 protection, formazan growth assay | < 3.70
C=Cc1c2[n-]c(c1C)/C=c1\[n-]/c(c(C)c1C=C)=C\c1[n-]c(c(CCC(=O)O)c1C)/C=c1\[n-]/c(c(C)c1CCC(=O)O)=C\2.[Co] | CEM cells HIV-1 protection, formazan growth assay | < 4.13

From here, focus on the item given below.
Entry NC(CC1=CS(=O)(=O)c2ccc(Cl)cc21)C(=O)O (stereo not given) ; pIC50 = < 3.70
